tested on: A549; assay: NCI tumour cell line growth inhibition, 48 h
The source made the active and inactive calls. Rule as the data show it: active = GI50 up to about 1.1 µM and inactive = higher.
Outcomes: YES for active, NO for inactive

• NC(=O)c1nc[nH]c1/N=N/SCC(N)C(=O)O (stereo unspecified) = NO
• Cc1[nH]c2ccccc2c1/C=N/NC(=O)c1cccc(I)c1 = NO
• COC(=O)/C=C1\SC2(O\C1=N/c1ccccc1)C1CC3CC(C1)CC2C3 (stereo unspecified) = NO
• CC(CCc1ccc2c(c1)c(N)c1ccc(N)cc1[n+]2[O-])CC(C)(C)C (stereo unspecified) = NO
• Nc1nncc2[nH]cnc12 = NO
• CCOC(=O)CN(c1ccccc1)c1nc(=[N+](C)C)ss1 = NO
• COc1ccc(CC(O)CN2CCOCC2)cc1 (stereo unspecified) = NO
• Cc1ccc(Cc2n[nH]c(=O)n2N2C(=O)c3ccccc3C2=O)cc1 = NO
• CCc1nc(N)nc(N)c1-c1ccc(Cl)c([N+]#N)c1 = NO
• COc1ccc(SCc2cc(OCc3ccccc3)c(OCc3ccccc3)c(OCc3ccccc3)c2)cc1 = NO
• O=c1[nH]/c(=C/c2cccs2)c(=O)[nH]/c1=C/c1ccc(OCc2ccccc2)cn1 = YES
• CNc1ccc([S+]([O-])Nc2ccc(OC)cc2)cc1 (stereo unspecified) = NO
• Clc1ccc2oc(CCC3CCCCC3)nc2c1 = NO
• CCc1ccccc1NC(=O)CC1NC(=O)CS1 (stereo unspecified) = NO
• CCOP(=S)(OCC)Oc1ccc2c(c1)OC(=O)C1(Cl)C2(C)C2(Cl)C(=O)Oc3cc(OP(=S)(OCC)OCC)ccc3C12C (stereo unspecified) = NO
• CC(=O)NC1C(OCc2ccccc2)OC(CO)C(O)C1OC(C)C(=O)N[C@@H](C)C(=O)N[C@H](CCC(=O)NCCNCCNc1c2ccccc2nc2cccc([N+](=O)[O-])c12)C(N)=O (stereo partly specified) = YES
• COC(=O)[C@H]1C=C[C@@H](C)n2c(=O)c3cc4ccccc4cc3c(=O)n21 = NO
• COc1cccc(/C=N/[N-]C(=S)Nc2ccccc2)c1[O-].O.[Zn+2] = NO
• S=C(N/N=C/c1ccccn1)N1CC2CCC(CC2)C1 = YES
• COc1ccc(NS(=O)(=O)c2ccc(NC(NC(=O)CC(C)C)(C(F)(F)F)C(F)(F)F)cc2)nn1 = NO
• N=C(Nc1nc(-c2ccccn2)cc2ccccc12)c1ccccn1 = YES
• C=CCc1cc(OC)c2c(c1)C(OC(C)=O)CC(c1ccc(OC)c(OC)c1)O2 (stereo unspecified) = NO
• CC(C)OC(=O)[C@H]1ON2O[C@H](O[C@@H]3CCCC[C@H]3c3ccccc3)C([Si](C)(C)c3ccccc3)[C@H]3OC(=O)[C@@H]1C32 (stereo partly specified) = NO
• COC(=O)CSc1[nH]c2nc(C)nc(Nc3ccccc3)c2c1C#N = NO
• CC(C)(C)C(=O)CP(=O)(O)O = NO
• OC1(c2ccc(Cl)cc2)c2c(c3ccccc3c3ccccc23)C2=NCCN21 (stereo unspecified) = NO
• Nc1cnc2c(c1)c(=O)nc1n2CCS1 = NO
• CO/C(=N\N=C\c1cc(OC)ccc1OC)c1ccncc1 = NO
• O=c1c2ccccc2c2nc3ccccc3nc2n1C1CCCCC1 = NO
• CN1CCCCCC(=N\O)/C(=N/O)CCCCC1 = NO
• CC(=O)Nc1c(S(=O)(=O)c2ccccc2)c(C)c(C)n1Cc1ccccc1 = NO
• c1ccc2c(c1)[nH]c1c[nH]c3c4cccnc4nc-3c12 = NO
• N/N=C(\N)SCc1ccc(N=C=S)cc1 = NO
• CNc1cc(Cl)ccc1C(=O)N1CCC[C@H]1CO = NO
• COc1nc2ncc([C@@H](OC(C)=O)[C@@H](COC(C)=O)OC(C)=O)nc2c(=O)n1C = NO
• O=C(O)CCC(NC(=O)c1ccc(CNc2nc3cc(C(F)(F)F)ccc3nc2C(=O)O)cc1)C(=O)O (stereo unspecified) = NO

====

test system: COLO 205; assay: NCI tumour cell line growth inhibition, 48 h
Active and inactive are the calls of the source. Rule as the data show it: active = GI50 up to about 1.1 µM and inactive = higher.
measurementName: GI50

• COc1ccc(NS(=O)(=O)c2ccc(NC(NC(=O)CC(C)C)(C(F)(F)F)C(F)(F)F)cc2)nn1 = > 100 µM (inactive)
• CC(=O)OCCN(C1=NCCN1)/[N+](C=c1ccc(=C=[N-])cc1)=C/c1ccc(C#N)cc1 = > 100 µM (inactive)
• CCN(CC)Cc1ccc(C(=S)Nc2ccc(Cl)cc2)s1 = 1.99 µM (inactive)
• Cc1c2n(c(=O)[nH]c1=O)C1OC(CO)C(N=[N+]=[N-])C1O2 (stereo not given) = > 100 µM (inactive)
• COc1ccc2nc3n(c2c1)C(c1c(Cl)cccc1Cl)SC3 (stereo not given) = > 100 µM (inactive)

====

system: UACC-62; assay: NCI tumour cell line growth inhibition, 48 h
Calls of active or inactive are those of the source. No stated cut-off is given here; in the data, active = GI50 up to about 1.1 µM and inactive = higher.
Outcomes: true = active, false = inactive

• O=C(O)c1ccc(C=C2Sc3ccccc3S2)cc1 = false
• Cc1ccc(/C=C2\CCCCC2=O)cc1 = false
• CC(C)[C@@H]1CC[C@@H](C)C[C@H]1OC(=O)/C=C1/C2C=CC(O2)C1C(=O)O[C@@H]1C[C@H](C)CC[C@H]1C(C)C (stereo partly drawn) = false
• O=C(C/N=C(\CN(c1ccccc1)c1ccccc1)Oc1ccc(Cl)cc1Cl)n1ccnc1 = false
• C[C@H](CCc1nc(C#N)c(N)o1)[C@H]1CC[C@H]2[C@@H]3CCC4C[C@@H](O)CC[C@]4(C)[C@H]3C[C@@H](O)[C@]12C (stereo partly drawn) = false
• Cc1nn(C(=O)c2ccc(Cl)cc2)c2c1C(c1ccc([N+](=O)[O-])cc1)SC(=N)N2 (stereo not drawn) = false
• CC[C@@]1(O)C(=O)OCc2c1cc1n(c2=O)Cc2c-1nc1ccccc1c2CC[Si](C)(C)C = true
• O=C1/C(=C/c2ccccc2)CN(C(=O)CCN2CCCC2)C/C1=C\c1ccccc1 = false

====

test system: RXF 393; experiment: NCI tumour cell line growth inhibition, 48 h
Activity calls are given as the source filed them. Cut-off read from the data, not from the text of the source: active = GI50 up to about 1.1 µM and inactive = higher. Where a SMILES comes first, the peptide text is derived from it. The star is where a group is joined. Cbz = O=C(OCc1ccccc1)*; Boc = CC(C)(C)OC(=O)*; Bn = c1ccc(C*)cc1
// GI50 lookup, one value per entry
measurementName: GI50

* COc1ccc(C(=O)C#Cc2cnc(OC)nc2OC)cc1 | 1.87 µM (inactive)
* COc1cc2c(cc1OCCCN1CCOCC1)N=C[C@@H]1CCCN1C2=O | 2.75 µM (inactive)
* CCCCC(/C=C\COC1CCCCO1)=C/C(=O)OCC (stereo not given) | 60.7 µM (inactive)
* CN(C)c1ccc(-c2c(C#N)c(-c3ccccc3)n(NS(=O)(=O)c3ccccc3)c(=O)c2C#N)cc1 | 44 µM (inactive)
* Oc1ccc2c(c1)c1c(n2CCN2CCOCC2)-c2ccccc2CC1 | 29.6 µM (inactive)
* N#Cc1c(-c2ccccc2)c(/C=N/c2ccc(F)cc2)c(=O)n2c1[nH]c1ccccc12 | 22.5 µM (inactive)
* CCO/C=C1\N=C(c2ccc(Cl)c(Cl)c2)OC1=O | 79.8 µM (inactive)
* Nc1nc(SCc2ccccc2Cl)c2[nH]cnc2n1 | 23.1 µM (inactive)
* COC12c3ccccc3-c3ccccc3C1[C@@H](C(=O)O)[C@H]2C(=O)O (stereo not given in full) | > 10 µM (inactive)
* CCCCCc1cc2cc3c(c(O)c2c(=O)[nH]1)C1(CCC3)C(=O)c2c(O)ccc(O)c2C1=O | 43 µM (inactive)
* Cc1cc(Cl)ccc1NC(=O)C1C(=O)N(c2ccc(Cl)cc2C)C(=O)/C1=N\N (stereo not given) | > 100 µM (inactive)
* Cc1nn(C(=O)c2ccc(Cl)cc2)c2c1C(c1ccc([N+](=O)[O-])cc1)SC(=N)N2 (stereo not given) | > 10 µM (inactive)
* COC(=O)CSc1[nH]c2nc(C)nc(Nc3ccccc3)c2c1C#N | > 10 µM (inactive)
* COc1cc2c(cc1C)NC(=O)/C2=C/c1c(Cl)[nH]c2cc(C)c(OC)cc12 | 6.81 µM (inactive)
* Cc1cc(NS(=O)(=O)c2ccc(/N=[N+](\[O-])c3ccc(S(=O)(=O)Nc4cc(C)on4)cc3)cc2)no1 | > 100 µM (inactive)
* CC(C)(C)OC(=O)NC(Cc1ccc(OCc2ccccc2)cc1)C(=O)NC(CCCCNC(=O)OCc1ccccc1)C(=O)O (stereo not given) (Boc-Tyr(Bn)-Lys(Cbz)-OH; configuration not given here) | 17.8 µM (inactive)
* COc1cc([C@@H]2c3cc4c(cc3[C@@H](c3c(O)cc(O)c5c3O[C@H](c3ccc(O)c(O)c3)[C@H](OC(=O)c3cc(O)c(O)c(O)c3)C5)[C@H]3COC(=O)[C@H]23)OCO4)cc(OC)c1O | 59.4 µM (inactive)
* CCCCc1ccc(Nc2nc(N)c3ncn(COCCO)c3n2)cc1 | 30.1 µM (inactive)
* Cn1nc(S(N)(=O)=O)s/c1=N/C(N)=S | > 100 µM (inactive)
* O=C(CCc1ccc(O)cc1)NCCc1cccc(OCc2ccccc2)c1 | 15.8 µM (inactive)
* O=c1cnn(C/C=C/CO)c(=O)[nH]1 | > 100 µM (inactive)
* Nc1cnc2c(c1)c(=O)nc1n2CCS1 | > 100 µM (inactive)
* COc1cc2c(cc1O)C1C(O)C(O)C=C3CCN(C2)C31 (stereo not given) | 1.45 µM (inactive)
* CN1CC=C(OP(=O)(NCc2ccccc2)N(CCCl)CCCl)CC1 (stereo not given) | 40.9 µM (inactive)
* O=C1C(c2c(O)[nH]c3ccc(Br)cc23)=Nc2ccccc21 | 2.39 µM (inactive)
* CCOC1OC(C)(C=C(C#N)C#N)CCC1C (stereo not given) | 53.6 µM (inactive)
* CCCCC(=O)c1ccc2ccccc2c1O | 99.1 µM (inactive)
* CC(C)N(CCn1c2c3ccccc3ccc2c2oc(=O)c3ccccc3c21)C(C)C | > 100 µM (inactive)
* Cc1cn(C2C=CC(COP(=O)(OCc3ccc([N+](=O)[O-])o3)N(C)CCCCCl)O2)c(=O)[nH]c1=O (stereo not given) | 2.38 µM (inactive)
* COc1ccc2c(c1OC)C(=O)N1C2=Cc2c(cc3c(c2OC)OCO3)CC1N(C)C (stereo not given) | 54.5 µM (inactive)
* O=c1[nH]cnc2c1sc1nc3ccccc3n12 | 16.3 µM (inactive)
* NS(=O)(=O)c1ccc(/C=C/c2ccc(F)cc2)cc1 | 15.6 µM (inactive)
* O=[N+]([O-])c1cc(Cl)c(Cl)cc1[N+](=O)[O-] | 1.63 µM (inactive)
* CC(=O)Nc1c(S(=O)(=O)c2ccccc2)c(C)c(C)n1Cc1ccccc1 | > 100 µM (inactive)
* NC(=O)c1cccc([C@@H]2O[C@H](CO)[C@@H](O)[C@H]2O)c1 | 8.89 µM (inactive)
* CN(C)CCCNc1ncnc2c1ncn2C1OC(CO)C(O)C1O (stereo not given) | > 100 µM (inactive)
* COc1ccc(CCNC(=O)CCc2ccccc2CO)cc1OC | > 100 µM (inactive)
* CC(C)=C[C@@H]1O[C@H](O)[C@@H]([C@H]2CC[C@@]3(C)[C@@H]4CC[C@H]5C(C)(C)C(=O)CC[C@@]56C[C@@]46CC[C@]23C)[C@@H]1O | 12.7 µM (inactive)
* O=C(n1c2ccccc2c2nnc(S)nc21)C(F)(F)F | 33.4 µM (inactive)
* COc1ccc(Nc2nc3c([nH]2)c(=O)n(C)c(=O)n3C)cc1 | > 10 µM (inactive)
